details: in THF, 318.15 K
Assay metric: solubility (mole fraction)
// no unit, no text: just the number

IN: Please report the recorded solubility (mole fraction) for O=P(NC1CCCCC1)(Oc1ccccc1)Oc1ccccc1 .
OUT: 0.372

----------
settings: in acetone, 318.15 K
Assay metric: solubility (mole fraction)
// no unit, no text: just the number

IN: Please report the recorded solubility (mole fraction) for O=P(NC1CCCCC1)(Oc1ccccc1)Oc1ccccc1 .
OUT: 0.187

----------
conditions: in acetone, 298.15 K
Assay metric: solubility (mole fraction)
// no unit, no text: just the number

IN: Please report the recorded solubility (mole fraction) for O=P(NC1CCCCC1)(Oc1ccccc1)Oc1ccccc1 .
OUT: 0.0611

----------
conditions: in ethyl acetate, 313.15 K
Assay metric: solubility (mole fraction)
// no unit, no text: just the number

IN: Please report the recorded solubility (mole fraction) for O=P(NC1CCCCC1)(Oc1ccccc1)Oc1ccccc1 .
OUT: 0.0946

----------
conditions: in toluene, 323.15 K
Assay metric: solubility (mole fraction)
// no unit, no text: just the number

IN: Please report the recorded solubility (mole fraction) for O=P(NC1CCCCC1)(Oc1ccccc1)Oc1ccccc1 .
OUT: 0.259

----------
details: in THF, 298.15 K
Assay metric: solubility (mole fraction)

IN: Please report the recorded solubility (mole fraction) for O=P(NC1CCCCC1)(Oc1ccccc1)Oc1ccccc1 .
OUT: 0.192

----------
settings: in benzene, 308.15 K
Assay metric: solubility (mole fraction)

IN: Please report the recorded solubility (mole fraction) for O=P(NC1CCCCC1)(Oc1ccccc1)Oc1ccccc1 .
OUT: 0.159

----------
settings: in ethyl acetate, 293.15 K
Assay metric: solubility (mole fraction)
// no unit, no text: just the number

IN: Please report the recorded solubility (mole fraction) for O=P(NC1CCCCC1)(Oc1ccccc1)Oc1ccccc1 .
OUT: 0.0305

----------
settings: in ethanol, 308.15 K
Assay metric: solubility (mole fraction)
// no unit, no text: just the number

IN: Please report the recorded solubility (mole fraction) for O=P(NC1CCCCC1)(Oc1ccccc1)Oc1ccccc1 .
OUT: 0.0867

----------
conditions: in ethanol, 338.15 K
Assay metric: solubility (mole fraction)
// no unit, no text: just the number

IN: Please report the recorded solubility (mole fraction) for O=P(NC1CCCCC1)(Oc1ccccc1)Oc1ccccc1 .
OUT: 0.406

----------
conditions: in THF, 328.15 K
Assay metric: solubility (mole fraction)
// no unit, no text: just the number

IN: Please report the recorded solubility (mole fraction) for O=P(NC1CCCCC1)(Oc1ccccc1)Oc1ccccc1 .
OUT: 0.504

----------
conditions: in benzene, 328.15 K
Assay metric: solubility (mole fraction)
// no unit, no text: just the number

IN: Please report the recorded solubility (mole fraction) for O=P(NC1CCCCC1)(Oc1ccccc1)Oc1ccccc1 .
OUT: 0.374

----------
conditions: in methanol, 293.15 K
Assay metric: solubility (mole fraction)
// no unit, no text: just the number

IN: Please report the recorded solubility (mole fraction) for O=P(NC1CCCCC1)(Oc1ccccc1)Oc1ccccc1 .
OUT: 0.0411

----------
conditions: in acetonitrile, 338.15 K
Assay metric: solubility (mole fraction)
// no unit, no text: just the number

IN: Please report the recorded solubility (mole fraction) for O=P(NC1CCCCC1)(Oc1ccccc1)Oc1ccccc1 .
OUT: 0.263

----------
conditions: in acetonitrile, 298.15 K
Assay metric: solubility (mole fraction)
// no unit, no text: just the number

IN: Please report the recorded solubility (mole fraction) for O=P(NC1CCCCC1)(Oc1ccccc1)Oc1ccccc1 .
OUT: 0.0171

----------
details: in ethanol, 293.15 K
Assay metric: solubility (mole fraction)
// no unit, no text: just the number

IN: Please report the recorded solubility (mole fraction) for O=P(NC1CCCCC1)(Oc1ccccc1)Oc1ccccc1 .
OUT: 0.0358

----------
details: in acetonitrile, 318.15 K
Assay metric: solubility (mole fraction)
// no unit, no text: just the number

IN: Please report the recorded solubility (mole fraction) for O=P(NC1CCCCC1)(Oc1ccccc1)Oc1ccccc1 .
OUT: 0.0759

----------
settings: in chloroform, 323.15 K
Assay metric: solubility (mole fraction)
// no unit, no text: just the number

IN: Please report the recorded solubility (mole fraction) for O=P(NC1CCCCC1)(Oc1ccccc1)Oc1ccccc1 .
OUT: 0.459

----------
details: in benzene, 313.15 K
Assay metric: solubility (mole fraction)
// no unit, no text: just the number

IN: Please report the recorded solubility (mole fraction) for O=P(NC1CCCCC1)(Oc1ccccc1)Oc1ccccc1 .
OUT: 0.195

----------
conditions: in ethyl acetate, 298.15 K
Assay metric: solubility (mole fraction)
// no unit, no text: just the number

IN: Please report the recorded solubility (mole fraction) for O=P(NC1CCCCC1)(Oc1ccccc1)Oc1ccccc1 .
OUT: 0.0395

----------
settings: in ethyl acetate, 328.15 K
Assay metric: solubility (mole fraction)
// no unit, no text: just the number

IN: Please report the recorded solubility (mole fraction) for O=P(NC1CCCCC1)(Oc1ccccc1)Oc1ccccc1 .
OUT: 0.211

----------
conditions: in benzene, 293.15 K
Assay metric: solubility (mole fraction)
// no unit, no text: just the number

IN: Please report the recorded solubility (mole fraction) for O=P(NC1CCCCC1)(Oc1ccccc1)Oc1ccccc1 .
OUT: 0.077

----------
settings: in benzene, 318.15 K
Assay metric: solubility (mole fraction)
// no unit, no text: just the number

IN: Please report the recorded solubility (mole fraction) for O=P(NC1CCCCC1)(Oc1ccccc1)Oc1ccccc1 .
OUT: 0.25

----------
conditions: in chloroform, 328.15 K
Assay metric: solubility (mole fraction)
// no unit, no text: just the number

IN: Please report the recorded solubility (mole fraction) for O=P(NC1CCCCC1)(Oc1ccccc1)Oc1ccccc1 .
OUT: 0.518

----------
settings: in dichloromethane, 293.15 K
Assay metric: solubility (mole fraction)
// no unit, no text: just the number

IN: Please report the recorded solubility (mole fraction) for O=P(NC1CCCCC1)(Oc1ccccc1)Oc1ccccc1 .
OUT: 0.155

----------
settings: in toluene, 293.15 K
Assay metric: solubility (mole fraction)
// no unit, no text: just the number

IN: Please report the recorded solubility (mole fraction) for O=P(NC1CCCCC1)(Oc1ccccc1)Oc1ccccc1 .
OUT: 0.0539

----------
details: in ethanol, 323.15 K
Assay metric: solubility (mole fraction)
// no unit, no text: just the number

IN: Please report the recorded solubility (mole fraction) for O=P(NC1CCCCC1)(Oc1ccccc1)Oc1ccccc1 .
OUT: 0.196

----------
conditions: in toluene, 298.15 K
Assay metric: solubility (mole fraction)

IN: Please report the recorded solubility (mole fraction) for O=P(NC1CCCCC1)(Oc1ccccc1)Oc1ccccc1 .
OUT: 0.0688

----------
details: in acetonitrile, 343.15 K
Assay metric: solubility (mole fraction)

IN: Please report the recorded solubility (mole fraction) for O=P(NC1CCCCC1)(Oc1ccccc1)Oc1ccccc1 .
OUT: 0.358

----------
conditions: in dichloromethane, 298.15 K
Assay metric: solubility (mole fraction)
// no unit, no text: just the number

IN: Please report the recorded solubility (mole fraction) for O=P(NC1CCCCC1)(Oc1ccccc1)Oc1ccccc1 .
OUT: 0.18

----------
details: in methanol, 303.15 K
Assay metric: solubility (mole fraction)
// no unit, no text: just the number

IN: Please report the recorded solubility (mole fraction) for O=P(NC1CCCCC1)(Oc1ccccc1)Oc1ccccc1 .
OUT: 0.0702

----------
conditions: in ethyl acetate, 318.15 K
Assay metric: solubility (mole fraction)
// no unit, no text: just the number

IN: Please report the recorded solubility (mole fraction) for O=P(NC1CCCCC1)(Oc1ccccc1)Oc1ccccc1 .
OUT: 0.128

Source of measurements: BigSolDB 2.1
